Assay: fervescence activity by intravenous injection (rising of body temperature), 1 mg/kg
Type: in vivo, Wister male rats
Conditions: 1 mg/kg intravenous, urethane-anesthetized rats
Result Type: Rising of Body Temperature

The compound listed as `CCCCCC(=O)CC[C@H]1[C@H](O)CC(=O)[C@@H]1CCCCC=CC(=O)O` has a reported Rising of Body Temperature of 0 °C

For `CCCCCC(=O)CC[C@H]1[C@H](O)CC(=O)[C@@H]1CCCCCCC(=O)O` the compound record lists Rising of Body Temperature as 0 °C

Note to self: Rising of Body Temperature recorded for `COCCCCCC(=O)CC[C@H]1[C@H](O)CC(=O)[C@@H]1C/C=C\CCCC(=O)OC` was +0.3 °C

Sample `CCCCCCC(=O)CC[C@H]1[C@H](O)CC(=O)[C@@H]1CC(=O)CCCCC(=O)OCC` ; Rising of Body Temperature observed: +0.7 °C

// recorded Rising of Body Temperature for `CCCCCC(=O)CC[C@H]1[C@H](O)CC(=O)[C@@H]1C/C=C\CCCC(=O)OCCO` : +0.4 °C

The compound identified as `CCOC(=O)CCCCC(=O)C[C@H]1C(=O)C[C@@H](O)[C@@H]1CCC(=O)CCCC(C)C` registered its Rising of Body Temperature at +0.8 °C

In plain terms, `CCCCC[C@H](O)/C=C/[C@H]1[C@H](O)CC(=O)[C@@H]1C/C=C\CCCC(=O)OC` has a documented Rising of Body Temperature of +1.2 °C

compound CCCCC(C)C(=O)CC[C@H]1[C@H](O)CC(=O)[C@@H]1CC(=O)CCCCC(=O)OCC (stereo partly shown) , Rising of Body Temperature observed: +0.9 °C

So, `CCCCCC(=O)CC[C@H]1[C@H](O)CC(=O)[C@@H]1CCCCCCC(=O)OCC` ? Its Rising of Body Temperature was +0.9 °C

The reported value for `COC(=O)CCCCC(=O)C[C@H]1C(=O)C[C@@H](O)[C@@H]1CCC(=O)CCCC(C)C` in terms of Rising of Body Temperature is +0.7 °C

// sample `CCCCCC(=O)CC[C@H]1[C@H](O)CC(=O)[C@@H]1CC(=O)CCCCC(=O)OCCCC` , its Rising of Body Temperature was +0.2 °C

Recorded Rising of Body Temperature (compound `CCCCCC(=O)CC[C@H]1[C@H](O)CC(=O)[C@@H]1C/C=C\CCCC(=O)OCC` ): +0.5 °C

// recorded Rising of Body Temperature for `CCCCCCCC(=O)CC[C@H]1[C@H](C)CC(=O)[C@@H]1C/C=C\CCCC(=O)OC` : +0.2 °C

// sample `COC(=O)CCC/C=C\C[C@H]1C(=O)C[C@@H](O)[C@@H]1CCC(=O)CCCCC=C(C)C` , its Rising of Body Temperature was +0.2 °C

So, `CC(C)=CCCCCC(=O)CC[C@H]1[C@H](O)CC(=O)[C@@H]1C/C=C\CCCC(=O)O` ? Its Rising of Body Temperature was +0.2 °C

Rising of Body Temperature measured on `CCCCC(C)(C)C(=O)CC[C@H]1[C@H](O)CC(=O)[C@@H]1C/C=C\CCCC(=O)OCC` = +0.6 °C

---

Assay: fervescence activity by intracerebroventricular injection (rising of body temperature)
Assay type: in vivo, Wister male rats
Conditions: 400 ng in 3 μl into lateral ventricle, urethane-anesthetized rats, rectal temperature
Can you tell me Rising of Body Temperature for the items I'm about to list?

Measured Rising of Body Temperature, CCCCCC(=O)CC[C@H]1[C@H](O)CC(=O)[C@@H]1C/C=C\CCCC(=O)OC [compound 23] : +0.4 °C

GET /value?item= CCCCCC(=O)CC[C@H]1[C@H](O)CC(=O)[C@@H]1CC(=O)CCCCC(=O)OC [compound 7] &field=Rising of Body Temperature returns +0.6 °C

Note to self: Rising of Body Temperature recorded for CCCCCC(=O)CC[C@H]1[C@H](O)CC(=O)[C@@H]1CCCCCCC(=O)O [compound 1] was +0.4 °C

Notebook: CCCCCC(=O)CC[C@H]1[C@H](O)CC(=O)[C@@H]1CC(=O)CCCCC(=O)OCC [compound 8] , Rising of Body Temperature read as +0.4 °C

---

Test: acute toxicity (LD50)
Conditions: mouse, in vivo; mice, intravenous injection
Result Type: LD50

Given item `CCCCCC(=O)CC[C@H]1[C@H](O)CC(=O)[C@@H]1C/C=C\CCCC(=O)OC` , the value recorded as its LD50 is > 1000 mg/kg

Note to self: LD50 recorded for `CCCCCC(=O)CC[C@H]1[C@H](O)CC(=O)[C@@H]1CCCCCCC(=O)OCC` was > 1000 mg/kg

Lab book: LD50 of `CCOC(=O)CCCCC(=O)C[C@H]1C(=O)C[C@@H](O)[C@@H]1CCC(=O)CCCC(C)C` noted as > 300 mg/kg

Reported LD50 ( `CCCCCC(=O)CC[C@H]1[C@H](O)CC(=O)[C@@H]1C/C=C\CCCC(=O)OCC` ) = 1000 mg/kg

---

So I've got a bunch of compounds here, and I need their Rising of Body Temperature values.
Assay: fervescence activity by intravenous injection (rising of body temperature), 1 mg/kg
Assay type: in vivo, Wister male rats
Settings: 1 mg/kg intravenous, urethane-anesthetized rats

Input CCCCC(C)C(=O)CC[C@H]1[C@H](O)CC(=O)[C@@H]1C/C=C\CCCC(=O)OC (stereo partly shown) . Output Rising of Body Temperature: +1.4 °C

Entry CCCCCC(=O)CC[C@H]1[C@H](O)CC(=O)[C@@H]1CC(=O)CCCCC(=O)OCC [compound 8] , Rising of Body Temperature reported as +0.6 °C

Value of Rising of Body Temperature reported for the compound COCCCCCC(=O)CC[C@H]1[C@H](O)CC(=O)[C@@H]1C/C=C\CC(C)CC(=O)OC (stereo partly shown) is +0.2 °C

// Rising of Body Temperature value for CCCCC(C)C(=O)CC[C@H]1[C@H](O)CC(=O)[C@@H]1CC(=O)CCCCC(=O)OC (stereo partly shown) : +1.5 °C

The compound `CCCCCC(=O)CC[C@H]1[C@H](O)CC(=O)[C@@H]1CCCCC=CC(=O)OC` showed Rising of Body Temperature equal to +0.8 °C

Entry under test: `CCCCC(C)(C)C(=O)CC[C@H]1[C@H](O)CC(=O)[C@@H]1C/C=C\CCCC(=O)OC` . Its Rising of Body Temperature was +1.0 °C

Entry `CCCCC[C@H](O)/C=C/[C@H]1[C@H](O)CC(=O)[C@@H]1C/C=C\CCCC(=O)O` ; Rising of Body Temperature = +0.7 °C

Reported Rising of Body Temperature for CCCCC(F)C(=O)CC[C@H]1[C@H](O)CC(=O)[C@@H]1C/C=C\CCCC(=O)O (stereo partly shown) was +0.3 °C

Per the record, `CCCCCC(=O)CC[C@H]1[C@H](O)CC(=O)[C@@H]1CC(=O)CCCCC(=O)O` has Rising of Body Temperature of 0 °C

The value of Rising of Body Temperature measured for the compound `CCCCCCCC(=O)CC[C@H]1[C@H](O)CC(=O)[C@@H]1C/C=C\CCCC(=O)OCC` turned out to be +0.2 °C

Entry under test: `CCCCCCCC(=O)CC[C@H]1[C@H](O)CC(=O)[C@@H]1C/C=C\CCCC(=O)OC` . Its Rising of Body Temperature was +0.5 °C

The compound listed as CCCCC(O)C(=O)CC[C@H]1[C@H](O)CC(=O)[C@@H]1C/C=C\CCCC(=O)OCC (stereo partly shown) shows Rising of Body Temperature equal to +0.2 °C

Rising of Body Temperature measured on `CCCCCC(=O)CC[C@H]1[C@H](C)CC(=O)[C@@H]1CC(=O)CCCCC(=O)OC` = +1.0 °C

Quick note, Rising of Body Temperature for `COC(=O)CCC/C=C\C[C@H]1C(=O)C[C@@H](O)[C@@H]1CCC(=O)CCCC(C)C` landed at +2.0 °C

Entry under test: CCCCC(F)C(=O)/C=C/[C@H]1[C@H](O)CC(=O)[C@@H]1C/C=C\CCCC(=O)OC (stereo partly shown) . Its Rising of Body Temperature was +1.0 °C

compound `CCCCCC(=O)CC[C@H]1[C@H](O)CC(=O)[C@@H]1C/C=C\CCCC(=O)OCCC` , Rising of Body Temperature observed: +0.2 °C

---

Experiment: fervescence activity by intracerebroventricular injection (rising of body temperature)
Assay type: in vivo, Wister male rats
Conditions: 400 ng in 3 μl into lateral ventricle, urethane-anesthetized rats, rectal temperature
Result Type: Rising of Body Temperature

Entry `CCCCCC(=O)CC[C@H]1[C@H](O)CC(=O)[C@@H]1C/C=C\CCCC(=O)OCC` , Rising of Body Temperature reported as +0.5 °C

Note to self: Rising of Body Temperature recorded for `CCCCCC(=O)CC[C@H]1[C@H](O)CC(=O)[C@@H]1C/C=C\CCCC(=O)O` was +0.7 °C

Reported Rising of Body Temperature for `CCCCCC(=O)CC[C@H]1[C@H](O)CC(=O)[C@@H]1CC(=O)CCCCC(=O)O` was +0.8 °C

Noted for `CCCCCC(=O)CC[C@H]1[C@H](O)CC(=O)[C@@H]1C/C=C\CCCC(=O)OCCCC` : its Rising of Body Temperature reads +0.1 °C
